SYSTEM UNDER TEST: Cannabinoid receptor (Mus musculus) (UniProt P47746+P47936)
Sequence (P47746 whole entry, looked up): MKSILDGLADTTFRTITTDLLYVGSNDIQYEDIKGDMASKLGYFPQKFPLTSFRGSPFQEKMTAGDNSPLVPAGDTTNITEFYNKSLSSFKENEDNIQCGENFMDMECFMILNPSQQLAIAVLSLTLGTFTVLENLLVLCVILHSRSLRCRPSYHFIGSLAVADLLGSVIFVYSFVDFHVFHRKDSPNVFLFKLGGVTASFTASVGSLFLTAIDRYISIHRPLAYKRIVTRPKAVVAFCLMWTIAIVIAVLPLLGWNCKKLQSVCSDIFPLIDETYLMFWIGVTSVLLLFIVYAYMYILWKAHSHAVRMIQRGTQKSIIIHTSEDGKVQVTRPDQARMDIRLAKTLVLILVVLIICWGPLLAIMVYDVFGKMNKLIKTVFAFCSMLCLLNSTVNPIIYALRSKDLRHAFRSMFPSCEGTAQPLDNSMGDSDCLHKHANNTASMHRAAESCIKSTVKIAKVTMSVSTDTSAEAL
Sequence (P47936 whole entry, looked up): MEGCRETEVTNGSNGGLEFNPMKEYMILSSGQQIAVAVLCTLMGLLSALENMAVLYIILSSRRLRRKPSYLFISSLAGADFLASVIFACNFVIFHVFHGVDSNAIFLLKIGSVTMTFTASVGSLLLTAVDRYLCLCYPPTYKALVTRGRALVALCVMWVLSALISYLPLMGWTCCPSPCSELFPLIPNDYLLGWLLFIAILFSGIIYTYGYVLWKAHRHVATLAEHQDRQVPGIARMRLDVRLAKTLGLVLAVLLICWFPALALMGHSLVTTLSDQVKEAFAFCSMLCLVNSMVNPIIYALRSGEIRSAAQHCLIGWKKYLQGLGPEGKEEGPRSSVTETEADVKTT
ASSAY COMMENT: Agonist activity at cannabinoid receptor in ICR mouse vas deferens assessed as inhibition of electrically induced contractions at 10^-7 M after 10 mins in presence of CB2 antagonist AM630 relative to control
Type: protein assay

LINE NOTATION | UNIT ANNOTATION | inhibition
O=C(c1ccccc1Cl)n1nc(OCCCN2CCCCC2)c2ccccc21 | % | -7.9
O=C(c1ccccc1OCc1ccccc1)n1nc(OCCN2CCCC2)c2ccccc21 | % | -4
O=C(c1cccc(Cl)c1F)n1nc(OCCCN2CCCCC2)c2ccccc21 | % | -1.5
O=C(c1cccc(Cl)c1Cl)n1nc(OCCN2CCCC2)c2ccccc21 | % | 0
O=C(c1cccc(Cl)c1Cl)n1nc(OCCCN2CCCCC2)c2ccccc21 | % | -3
O=C(c1cccc(Cl)c1Cl)n1nc(OCCN2CCCCC2)c2ccccc21 | % | -1.2
COc1ccc(CC(=O)n2nc(OCCCN3CCCCC3)c3ccccc32)cc1 | % | -9.2
O=C(c1cccc(F)c1F)n1nc(OCCN2CCCC2)c2ccccc21 | % | -3.8
O=C(c1c(F)ccc(F)c1F)n1nc(OCCN2CCCCC2)c2ccccc21 | % | -3.3
O=C(c1ccccc1OCc1ccccc1)n1nc(OCCCN2CCCCC2)c2ccccc21 | % | -3.1
O=C(Cc1ccc(Cl)cc1)n1nc(OCCCN2CCCCC2)c2ccccc21 | % | -7.8

====

pIC50: −log10 of the molar value.
Entries below carry reported pIC50 on Acetylcholinesterase (Homo sapiens, UniProt P22303).
Sequence (P22303 whole entry): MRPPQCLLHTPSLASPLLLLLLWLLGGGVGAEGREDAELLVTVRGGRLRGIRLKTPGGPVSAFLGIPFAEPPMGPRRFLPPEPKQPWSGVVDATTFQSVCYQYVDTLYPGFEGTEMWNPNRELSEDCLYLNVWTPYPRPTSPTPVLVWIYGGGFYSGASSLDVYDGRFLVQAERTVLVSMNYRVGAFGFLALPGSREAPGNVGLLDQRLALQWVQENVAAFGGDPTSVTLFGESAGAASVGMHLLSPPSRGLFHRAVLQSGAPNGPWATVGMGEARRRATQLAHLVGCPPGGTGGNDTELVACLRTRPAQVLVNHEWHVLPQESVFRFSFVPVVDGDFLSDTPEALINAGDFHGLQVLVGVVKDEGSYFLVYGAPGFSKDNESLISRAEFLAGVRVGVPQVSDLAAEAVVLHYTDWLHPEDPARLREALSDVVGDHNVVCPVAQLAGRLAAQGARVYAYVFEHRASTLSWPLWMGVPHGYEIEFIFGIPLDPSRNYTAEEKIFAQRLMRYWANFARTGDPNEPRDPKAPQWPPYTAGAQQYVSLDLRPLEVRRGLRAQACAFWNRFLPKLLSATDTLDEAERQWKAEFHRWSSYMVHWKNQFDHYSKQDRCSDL

LINE NOTATION | pIC50
O=C(c1cccc2ccccc12)n1nc(OCCCN2CCCCC2)c2ccccc21 | < 5.00
O=C(c1cccc(Cl)c1Cl)n1nc(OCCN2CCCC2)c2ccccc21 | < 5.00
O=C(Cc1ccc(Cl)cc1)n1nc(OCCCN2CCCCC2)c2ccccc21 | < 5.00

====

SYSTEM UNDER TEST: Cannabinoid receptor (Mus musculus) (UniProt P47746+P47936)
ASSAY COMMENT: Agonist activity at cannabinoid receptor in ICR mouse vas deferens assessed as inhibition of electrically induced contractions at 8.1 x 10^-6 M after 10 mins in presence of CB1 antagonist AM251 relative to control
Type: protein assay
MEASURE NAME: inhibition (%)

LINE NOTATION | REPORTED
O=C(c1cccc(Cl)c1F)n1nc(OCCCN2CCCCC2)c2ccccc21 | 54.9
O=C(c1ccccc1Cl)n1nc(OCCN2CCCC2)c2ccccc21 | -2.6
O=C(c1ccc2ccccc2c1)n1nc(OCCCN2CCCCC2)c2ccccc21 | 0.7
COc1ccc(CC(=O)n2nc(OCCN3CCCC3)c3ccccc32)cc1 | 44.3

====

SYSTEM UNDER TEST: Cannabinoid receptor (Mus musculus) (UniProt P47746+P47936)
ASSAY COMMENT: Agonist activity at cannabinoid receptor in ICR mouse vas deferens assessed as inhibition of electrically induced contractions at 1.82 x 10^-5 M after 10 mins in presence of CB1 antagonist AM251 relative to control
Assay type: protein assay
Threshold rule: inhibition greater than or equal to 50% is true; below that, false.

LINE NOTATION | ASSIGNED CLASS
COc1ccc(CC(=O)n2nc(OCCN3CCCC3)c3ccccc32)cc1 | true
O=C(c1cccc2ccccc12)n1nc(OCCN2CCCCC2)c2ccccc21 | true
O=C(c1cccc(F)c1F)n1nc(OCCN2CCCC2)c2ccccc21 | false
O=C(c1ccccc1Cl)n1nc(OCCN2CCCC2)c2ccccc21 | false
O=C(c1c(F)ccc(F)c1F)n1nc(OCCN2CCCCC2)c2ccccc21 | false
O=C(c1cccc(Cl)c1Cl)n1nc(OCCN2CCCC2)c2ccccc21 | true
O=C(Cc1ccc(Cl)cc1)n1nc(OCCCN2CCCCC2)c2ccccc21 | true
Cc1c(C(=O)NN2CCCCC2)nn(-c2ccc(Cl)cc2Cl)c1-c1ccc(I)cc1 | true

====

SYSTEM UNDER TEST: Cannabinoid receptor (Mus musculus) (UniProt P47746+P47936)
ASSAY COMMENT: Agonist activity at cannabinoid receptor in ICR mouse vas deferens assessed as inhibition of electrically induced contractions at 10^-7 M after 10 mins relative to control
Format: protein assay

LINE NOTATION | UNIT ANNOTATION | inhibition
COc1cc(C(=O)n2nc(OCCN3CCCC3)c3ccccc32)cc(OC)c1OC | % | 3.2
O=C(c1ccccc1Cl)n1nc(OCCCN2CCCCC2)c2ccccc21 | % | -2.2
Cc1cc(C)c(C(=O)n2nc(OCCN3CCCCC3)c3ccccc32)c(C)c1 | % | 2.6
O=C(c1c(F)ccc(F)c1F)n1nc(OCCN2CCCCC2)c2ccccc21 | % | 4.8
O=C(Cc1ccc(Cl)cc1)n1nc(OCCCN2CCCCC2)c2ccccc21 | % | -4.5
Cc1c(C(=O)c2cccc3ccccc23)c2cccc3c2n1[C@H](CN1CCOCC1)CO3 | % | 17.8
O=C(c1cccc2ccccc12)n1nc(OCCCN2CCCCC2)c2ccccc21 | % | 1
O=C(c1ccccc1Cl)n1nc(OCCN2CCCC2)c2ccccc21 | % | 1.5
O=C(c1cccc(Cl)c1Cl)n1nc(OCCCN2CCCCC2)c2ccccc21 | % | 1.4
O=C(c1cccc(F)c1F)n1nc(OCCN2CCCC2)c2ccccc21 | % | 0.8
O=C(c1ccc2ccccc2c1)n1nc(OCCCN2CCCCC2)c2ccccc21 | % | -2.1
O=C(c1cccc(Cl)c1Cl)n1nc(OCCN2CCCCC2)c2ccccc21 | % | 1.3
O=C(c1ccccc1OCc1ccccc1)n1nc(OCCN2CCCC2)c2ccccc21 | % | 1.2
COc1ccc(CC(=O)n2nc(OCCCN3CCCCC3)c3ccccc32)cc1 | % | -2.4
COc1ccc(CC(=O)n2nc(OCCN3CCCC3)c3ccccc32)cc1 | % | 2.4
O=C(c1cccc2ccccc12)n1nc(OCCCN2CCCC2)c2ccccc21 | % | -2

====

This listing pairs molecules with measured inhibition.
SYSTEM UNDER TEST: Cannabinoid receptor (Mus musculus) (UniProt P47746+P47936)
ASSAY COMMENT: Agonist activity at cannabinoid receptor in ICR mouse vas deferens assessed as inhibition of electrically induced contractions at 8.1 x 10^-6 M after 10 mins in presence of CB1 antagonist AM251 relative to control
Format: protein assay

LINE NOTATION | inhibition
O=C(c1ccccc1OCc1ccccc1)n1nc(OCCN2CCCC2)c2ccccc21 | 38.8%
O=C(c1c(F)ccc(F)c1F)n1nc(OCCN2CCCCC2)c2ccccc21 | 23.6%
O=C(c1ccccc1OCc1ccccc1)n1nc(OCCCN2CCCCC2)c2ccccc21 | 26.4%
O=C(Cc1ccc(Cl)cc1)n1nc(OCCCN2CCCCC2)c2ccccc21 | 61.8%

====

SYSTEM UNDER TEST: Cannabinoid receptor (Mus musculus) (UniProt P47746+P47936)
ASSAY COMMENT: Agonist activity at cannabinoid receptor in ICR mouse vas deferens assessed as inhibition of electrically induced contractions at 1.82 x 10^-5 M after 10 mins relative to control
Type: protein assay
Each entry below lists one item and its recorded inhibition value.

LINE NOTATION | inhibition / %
O=C(c1cccc(Cl)c1F)n1nc(OCCCN2CCCCC2)c2ccccc21 | 80.5
COc1cc(C(=O)n2nc(OCCN3CCCC3)c3ccccc32)cc(OC)c1OC | 78
O=C(c1cccc(Cl)c1Cl)n1nc(OCCN2CCCC2)c2ccccc21 | 80.8
Cc1c(C(=O)c2cccc3ccccc23)c2cccc3c2n1[C@H](CN1CCOCC1)CO3 | 81.3

====

SYSTEM UNDER TEST: Cannabinoid receptor (Mus musculus) (UniProt P47746+P47936)
ASSAY COMMENT: Agonist activity at cannabinoid receptor in ICR mouse vas deferens assessed as inhibition of electrically induced contractions at 2.7 x 10^-6 M after 10 mins in presence of CB2 antagonist AM630 relative to control
Format: protein assay
MEASURE NAME: inhibition (%)

LINE NOTATION | MEASURE NAME | REPORTED
O=C(c1cccc2ccccc12)n1nc(OCCCN2CCCCC2)c2ccccc21 | inhibition | 14.2
O=C(Cc1ccc(Cl)cc1)n1nc(OCCCN2CCCCC2)c2ccccc21 | inhibition | 19.7
O=C(c1ccccc1Cl)n1nc(OCCCN2CCCCC2)c2ccccc21 | inhibition | 9.3
O=C(c1c(F)ccc(F)c1F)n1nc(OCCN2CCCCC2)c2ccccc21 | inhibition | 12.8
COc1ccc(CC(=O)n2nc(OCCCN3CCCCC3)c3ccccc32)cc1 | inhibition | 14.7
Cc1c(C(=O)c2cccc3ccccc23)c2cccc3c2n1[C@H](CN1CCOCC1)CO3 | inhibition | 33.2
O=C(c1cccc(Cl)c1Cl)n1nc(OCCCN2CCCCC2)c2ccccc21 | inhibition | 18.2
